# EXPERIMENT DESCRIPTION: protein stability index of a GFP-peptide fusion (yeast GPS) (PSI 1-4); higher = more stable; sorted into four equal gates, so the index is relative within each strain
# CONDITIONS USED: san1∆
Lab note: anything with protein stability index at or over 3 counts as 1 (yes); the rest go in 0 (no).

Consider the following illustrative entries.
[
  {
    "QUERY SEQUENCE": "IRNLTVFTMKELAQYMK [RGR1]",
    "CLASSIFICATION": "0 (no)"
  },
  {
    "QUERY SEQUENCE": "LNSFVNDIFERIATEAS [HTB1]",
    "CLASSIFICATION": "0 (no)"
  },
  {
    "QUERY SEQUENCE": "QIAAQSPVELSRMFEEV [SMC1]",
    "CLASSIFICATION": "1 (yes)"
  },
  {
    "QUERY SEQUENCE": "FKLSSESVIEQIVKYAR [RPS13]",
    "CLASSIFICATION": "0 (no)"
  },
  {
    "QUERY SEQUENCE": "LDLAGPLLAQLFKTLFK [RPB2]",
    "CLASSIFICATION": "0 (no)"
  },
  {
    "QUERY SEQUENCE": "QSSLDVAGLEDKFRKAC [SIR3]",
    "CLASSIFICATION": "1 (yes)"
  },
  {
    "QUERY SEQUENCE": "ESKSLLNLFSNVLKAPF [SIR4]",
    "CLASSIFICATION": "0 (no)"
  },
  {
    "QUERY SEQUENCE": "RTPDSISVNSSSFSLTF [POP1]",
    "CLASSIFICATION": "0 (no)"
  }
]

QUERY: Textbook exercise: given the entry LHKLELKAKNQEEEGEL [DSN1] , state whether its protein stability index is greater than or equal to 3.
RESULT: 1 (yes)

QUERY: Textbook exercise: given the entry DTDKLPIKNRTSKSFSK [SIN4] , state whether its protein stability index is greater than or equal to 3.
RESULT: 0 (no)

QUERY: Textbook exercise: given the entry ALPRGARTATVSKKWAA [RPL14A] , state whether its protein stability index is greater than or equal to 3.
RESULT: 0 (no)

====

This listing pairs sequences with measured protein stability index.
# EXPERIMENT DESCRIPTION: protein stability index of a GFP-peptide fusion (yeast GPS) (PSI 1-4); higher = more stable; sorted into four equal gates, so the index is relative within each strain
# CONDITIONS USED: pdr5∆
Enter the number alone.

Here's what some known entries look like.
[
  {
    "QUERY SEQUENCE": "NIRSQLLSENRSEKSTT [SRP54]",
    "VALUE MEASURED": 3
  },
  {
    "QUERY SEQUENCE": "FKKSKIDHINEESWEKV [SCL1]",
    "VALUE MEASURED": 3.05
  },
  {
    "QUERY SEQUENCE": "PSKKRRRDFGAPANKRP [SMD1]",
    "VALUE MEASURED": 3.02
  }
]

QUERY: Fill blank: measured protein stability index of the sequence MSQSTASLVPEGNQGSL [MED8] is ____.
RESULT: 2.97

QUERY: Fill blank: measured protein stability index of the sequence AIIVAGVQSNGDQFLRY [PRE4] is ____.
RESULT: 2.83

QUERY: Fill blank: measured protein stability index of the sequence SIDPPGCVDIDDALHAK [DIS3] is ____.
RESULT: 3.19

Hey, just so you know, these numbers are from the supplement of paper PMC9732359.
